# Experimental Protocol: In vivo clearance in Wistar rat at 5 to 10 mg/kg, iv administered as bolus dose
# Format: ADME, organism-based
# Design: dose 5-10 mg/kg, route intravenous
Listed compounds paired with reported clearance

Smiles Text	Unit Text	clearance
Cc1cn([C@H]2CCCN([C@@H](CC(C)C)c3ccc(C(=O)O)c(Oc4cccc(Cl)c4)c3F)C2)c(=O)[nH]c1=O	L/h/kg	2.28
CCC[C@@H](c1ccc(C(=O)O)c(Oc2cccc(Cl)c2)c1F)N1CCC[C@H](n2cc(C)c(=O)[nH]c2=O)C1	L/h/kg	1.08
Cc1cn([C@H]2CCCN([C@H](CC(C)(C)C)c3ccc(C(=O)O)c(Oc4cccc(Br)c4)c3)C2)c(=O)[nH]c1=O	L/h/kg	2.52
CC[C@H](c1ccc(C(=O)O)c(Oc2cccc(Cl)c2)c1F)N1CCC[C@H](n2cc(C)c(=O)[nH]c2=O)C1	L/h/kg	7.14
CC[C@H](c1ccc(C(=O)O)c(Oc2cccc(Cl)c2)c1OC)N1CCC[C@H](n2cc(C)c(=O)[nH]c2=O)C1	L/h/kg	5.04
CC[C@@H](c1ccc(C(=O)O)c(Oc2cccc(Cl)c2)c1OC)N1CCC[C@H](n2cc(C)c(=O)[nH]c2=O)C1	L/h/kg	4.38
Cc1cn([C@H]2CCCN([C@H](CC(C)C)c3ccc(C(=O)O)c(Oc4cccc(Cl)c4)c3F)C2)c(=O)[nH]c1=O	L/h/kg	5.04
CCC[C@H](c1ccc(C(=O)O)c(Oc2cccc(Cl)c2)c1F)N1CCC[C@H](n2cc(C)c(=O)[nH]c2=O)C1	L/h/kg	3.84
